# target-or-system: TEC (Homo sapiens, UniProt P42680)
# Sequence (P42680 whole entry): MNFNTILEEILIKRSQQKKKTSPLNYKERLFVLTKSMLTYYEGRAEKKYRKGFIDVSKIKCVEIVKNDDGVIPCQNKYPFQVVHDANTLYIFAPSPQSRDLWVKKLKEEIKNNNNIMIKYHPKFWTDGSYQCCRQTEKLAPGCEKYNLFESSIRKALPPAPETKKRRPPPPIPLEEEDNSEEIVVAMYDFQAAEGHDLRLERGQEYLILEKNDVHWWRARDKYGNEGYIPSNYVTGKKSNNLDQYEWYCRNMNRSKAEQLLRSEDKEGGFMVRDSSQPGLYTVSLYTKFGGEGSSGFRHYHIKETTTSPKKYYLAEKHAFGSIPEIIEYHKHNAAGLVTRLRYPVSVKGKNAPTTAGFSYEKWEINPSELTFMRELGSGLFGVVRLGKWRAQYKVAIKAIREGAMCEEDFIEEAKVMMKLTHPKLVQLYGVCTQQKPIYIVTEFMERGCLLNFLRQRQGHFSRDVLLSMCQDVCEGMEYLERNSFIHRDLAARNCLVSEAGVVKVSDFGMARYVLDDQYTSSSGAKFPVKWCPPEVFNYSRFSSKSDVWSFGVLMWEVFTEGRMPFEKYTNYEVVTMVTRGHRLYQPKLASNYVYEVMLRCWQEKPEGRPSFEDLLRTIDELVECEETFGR
# experiment-description: Inhibition of a panel of kinases, in vitro HotSpot kinase assay: TEC
# Assay type: biochemical
# reported-conditions: D-compounds panel data; 1 μM ATP
quantity: IC50

Consider the reported IC50 for these compounds:
So what does the record say about IC50 for C[C@@H]1[C@H](NC(=O)C23CC(C2)C3)CCCN1c1cnc(C(N)=O)c(Nc2cnn(C)c2)n1 ?
10 to 100 nM

So what does the record say about IC50 for C[C@@H]1[C@H](NC(=O)c2ccc3c(c2)CCC(C)(C)O3)CCCN1c1cnc(C(N)=O)c(Nc2cnn(C)c2)n1 ?
≤ 10 nM

So what does the record say about IC50 for C[C@@H]1[C@H](NC(=O)c2ccc(C3CC3)cc2)CCCN1c1cnc(C(N)=O)c(Nc2ccc(N3CCN(C)CC3)cc2F)n1 ?
100 to 1000 nM

Continuing:
So what does the record say about IC50 for C[C@@H]1[C@H](NC(=O)c2ccc(C3CC3)cc2)CCCN1c1cnc(C(N)=O)c(Nc2ccc(OC3CCN(C4CCCC4)CC3)cc2)n1 ?
≤ 10 nM

So what does the record say about IC50 for CN(C)C(=O)N[C@@H]1CCCN(c2cnc(C(N)=O)c(Nc3ccc(C4(C)CCN(C5CCCC5)CC4)cc3)n2)[C@H]1CO ?
1000 to 10000 nM

So what does the record say about IC50 for C[C@@H]1[C@H](NC(=O)c2ccc(C3CC3)cc2)CCCN1c1cnc(C(N)=O)c(Nc2cnn(C)c2)c1 ?
100 to 1000 nM

So what does the record say about IC50 for Cc1cc(Nc2cc(N3CCC[C@@H](NC(=O)c4ccc(C5CC5)cc4F)[C@H]3C)cnc2C(N)=O)sn1 ?
100 to 1000 nM

So what does the record say about IC50 for C[C@@H]1[C@H](NC(=O)c2ccc(C(C)(O)C(F)(F)F)cc2)CCCN1c1cnc(C(N)=O)c(Nc2cnn(C)c2)n1 (single isomer, unassigned) [Example D-214] ?
≤ 10 nM

So what does the record say about IC50 for C[C@@H]1[C@H](NC(=O)c2ccc(C3COC3)cc2)CCCN1c1cnc(C(N)=O)c(Nc2cnn(C)c2)n1 ?
≤ 10 nM

So what does the record say about IC50 for C[C@@H]1[C@H](NC(=O)c2ncc(C3CC3)cn2)CCCN1c1cnc(C(N)=O)c(Nc2cnn(C)c2)n1 ?
10 to 100 nM

So what does the record say about IC50 for C[C@@H]1[C@H](NC(=O)c2ccc(SC(F)(F)F)cc2)CCCN1c1cnc(C(N)=O)c(Nc2cnn(C)c2)n1 ?
10 to 100 nM

So what does the record say about IC50 for C[C@@H]1[C@H](NC(=O)c2ccc3c(cnn3C)c2)CCCN1c1cnc(C(N)=O)c(Nc2cnn(C)c2)n1 ?
≤ 10 nM

So what does the record say about IC50 for C[C@@H]1[C@H](NC(=O)N(C)C)CCCN1c1cnc(C(N)=O)c(Nc2ccc(C(=O)N3CCN(C)CC3)cc2)n1 ?
100 to 1000 nM
